assay: Cytotoxicity by microscopic examination of the cell sheet; format: cell-based; details: human; footnote ** to VZV; WI-38 cells, 6-7 days; read-out: Cytotoxic concentration by microscopic examination of the cell sheet (VZV assay)
property name: MCC

Q. Give the measured MCC of Nc1ncnc2c1ncn2[C@H]1C[C@@H](CO)C1 .
A. 228 µM

---

assay: Reduction of viability of uninfected CEM cells (XTT-PMS); format: cell-based; conditions: human, footnotes *** and **** to HIV, 7 days, read-out: Minimum cytotoxic drug concentration that reduces cell viability by 50%
property name: CC50 at 168 h

given smiles | property name | measured
Nc1nc2c(ncn2[C@H]2C[C@@H](CO)C2)c(=O)[nH]1 | CC50 at 168 h | > 425 µM

Shifting focus to the compound that follows.
Q. // CC50 at 168 h lookup, key: Nc1ncnc2c1ncn2[C@H]1C[C@@H](CO)C1
A. > 456 µM

---

system: HSV-2 (herpes simplex virus type 2, strain 186); experiment: HSV-2 antiviral assay (plaque reduction in WI-38 cell monolayers); assay type: cell-based; details: Human alphaherpesvirus 2, 96 h; WI-38 cells; plaque reduction of at least 50%; 4 days at 37° C.; read-out: ID50 for HSV-2
property name: pIC50
Numbers only, as −log10 of the molar value.

Q. For Nc1ncnc2c1ncn2[C@H]1C[C@@H](CO)C1 , what is its reported pIC50?
A. 3.34

---

assay: Cytotoxicity by microscopic examination of the cell sheet; assay type: cell-based; conditions: human; footnote * to HSV-1 and HSV-2; WI-38 cells, 4 days; read-out: Cytotoxic concentration by microscopic examination of the cell sheet (HSV-1 and HSV-2 assays)
property name: MCC at 96 h
Please answer using the number first and the unit second.

Q. Given the entry Nc1ncnc2c1ncn2[C@H]1C[C@@H](CO)C1 , report its measured MCC at 96 h.
A. 456 µM

Values were extracted from patent US5369098A.
